- System: Leucine-rich repeat serine/threonine-protein kinase 2 (Homo sapiens), Q5S007 [G2019S]
- Sequence (Q5S007 whole entry G2019S): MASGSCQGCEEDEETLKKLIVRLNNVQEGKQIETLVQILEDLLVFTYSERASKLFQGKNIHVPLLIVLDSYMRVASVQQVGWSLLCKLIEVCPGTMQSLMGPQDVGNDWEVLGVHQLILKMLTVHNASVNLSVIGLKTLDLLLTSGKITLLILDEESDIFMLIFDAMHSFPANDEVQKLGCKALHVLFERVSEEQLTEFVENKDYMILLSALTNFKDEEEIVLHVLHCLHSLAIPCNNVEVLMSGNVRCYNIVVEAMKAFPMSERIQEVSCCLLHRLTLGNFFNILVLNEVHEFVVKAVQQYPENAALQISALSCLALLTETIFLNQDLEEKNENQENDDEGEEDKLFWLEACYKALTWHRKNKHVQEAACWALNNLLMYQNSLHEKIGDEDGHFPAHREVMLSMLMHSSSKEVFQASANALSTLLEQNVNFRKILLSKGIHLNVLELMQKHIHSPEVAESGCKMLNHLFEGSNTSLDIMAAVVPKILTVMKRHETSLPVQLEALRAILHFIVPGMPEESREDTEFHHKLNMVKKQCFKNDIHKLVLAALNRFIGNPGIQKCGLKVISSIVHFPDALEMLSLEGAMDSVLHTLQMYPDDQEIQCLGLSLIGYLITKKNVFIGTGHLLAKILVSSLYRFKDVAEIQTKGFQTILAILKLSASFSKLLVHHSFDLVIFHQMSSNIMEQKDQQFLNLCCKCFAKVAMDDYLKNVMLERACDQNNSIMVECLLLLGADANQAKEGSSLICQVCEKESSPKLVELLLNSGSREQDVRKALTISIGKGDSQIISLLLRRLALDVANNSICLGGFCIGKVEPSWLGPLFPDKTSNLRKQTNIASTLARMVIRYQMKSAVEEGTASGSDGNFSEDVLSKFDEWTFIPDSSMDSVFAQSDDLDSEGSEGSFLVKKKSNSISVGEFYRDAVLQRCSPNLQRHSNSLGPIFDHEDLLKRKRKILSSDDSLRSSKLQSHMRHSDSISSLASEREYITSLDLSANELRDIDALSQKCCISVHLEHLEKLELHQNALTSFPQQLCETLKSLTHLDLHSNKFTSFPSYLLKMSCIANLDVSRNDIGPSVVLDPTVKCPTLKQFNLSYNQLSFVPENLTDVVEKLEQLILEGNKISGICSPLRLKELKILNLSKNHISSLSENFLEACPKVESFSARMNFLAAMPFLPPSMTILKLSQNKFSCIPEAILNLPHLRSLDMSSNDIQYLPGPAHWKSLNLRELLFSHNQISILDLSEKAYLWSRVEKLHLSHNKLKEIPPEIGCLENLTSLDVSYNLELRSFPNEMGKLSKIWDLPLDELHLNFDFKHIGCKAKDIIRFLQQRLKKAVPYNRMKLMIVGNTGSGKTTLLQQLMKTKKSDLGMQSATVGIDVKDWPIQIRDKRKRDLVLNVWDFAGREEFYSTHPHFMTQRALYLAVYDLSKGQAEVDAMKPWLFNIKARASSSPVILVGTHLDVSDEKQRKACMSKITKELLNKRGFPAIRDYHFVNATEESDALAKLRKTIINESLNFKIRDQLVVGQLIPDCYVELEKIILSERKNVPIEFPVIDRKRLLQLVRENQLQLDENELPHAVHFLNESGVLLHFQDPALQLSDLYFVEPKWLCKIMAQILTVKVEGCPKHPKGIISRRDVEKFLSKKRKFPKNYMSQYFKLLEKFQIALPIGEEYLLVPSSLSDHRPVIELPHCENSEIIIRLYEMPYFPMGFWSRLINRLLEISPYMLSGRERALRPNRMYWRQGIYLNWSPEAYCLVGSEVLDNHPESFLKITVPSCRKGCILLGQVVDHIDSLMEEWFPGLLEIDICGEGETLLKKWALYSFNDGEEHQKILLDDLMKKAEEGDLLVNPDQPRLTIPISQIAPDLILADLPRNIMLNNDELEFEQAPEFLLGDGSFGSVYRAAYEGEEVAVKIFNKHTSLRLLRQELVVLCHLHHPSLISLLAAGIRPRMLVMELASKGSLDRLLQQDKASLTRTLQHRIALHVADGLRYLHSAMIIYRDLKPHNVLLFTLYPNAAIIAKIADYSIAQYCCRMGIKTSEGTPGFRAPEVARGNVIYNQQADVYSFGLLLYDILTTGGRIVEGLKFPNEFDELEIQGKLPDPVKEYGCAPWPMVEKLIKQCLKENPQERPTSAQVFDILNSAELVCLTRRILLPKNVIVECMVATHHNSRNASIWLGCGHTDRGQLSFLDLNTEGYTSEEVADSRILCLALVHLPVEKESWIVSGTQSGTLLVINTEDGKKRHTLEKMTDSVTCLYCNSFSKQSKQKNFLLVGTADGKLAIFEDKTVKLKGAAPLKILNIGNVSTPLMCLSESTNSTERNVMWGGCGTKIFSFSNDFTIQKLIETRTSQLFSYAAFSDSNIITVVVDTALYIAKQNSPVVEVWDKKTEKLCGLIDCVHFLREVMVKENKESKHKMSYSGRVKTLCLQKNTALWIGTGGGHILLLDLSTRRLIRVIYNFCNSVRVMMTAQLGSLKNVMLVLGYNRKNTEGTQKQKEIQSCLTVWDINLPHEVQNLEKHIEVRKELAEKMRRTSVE
- condition: at 1 µM
endpoint: inhibition (%)
Value expressed in %; do not type the unit.

Please supply the value of reported inhibition for the item `c1ccc(-c2nc3n(c2-c2ccc4c(c2)OCO4)CCC3)nc1`
3.64

Give reported inhibition value for `N#Cc1c(NC(=O)CN2CCOCC2)sc2c1CCCC2`
8.85

Give reported inhibition value for `CCn1c(-c2nonc2N)nc2cnc(Oc3cccc(NC(=O)c4ccc(N(C)C)cc4)c3)cc21`
27.4

Entry `CCOc1ccc2c(-c3ccnc(Nc4cccc(C(F)(F)F)c4)n3)cnn2n1` needs its inhibition filled in; supply it.
10.4

In one line, give reported inhibition of the entry `COc1ccc(-c2nn3ncccc3c2-c2ccnc(Nc3ccc4c(c3)OCCO4)n2)cc1` .
10.2

Cited source: ChEMBL document CHEMBL1961873
